Overview of reported T/C across a group of compounds:
Test system: L1210 leukemia ip in BDF1 mice, survival T/C
assay.info: NCI In Vivo Anticancer Drug Screen. Data for tumor model L1210 Leukemia (intraperitoneal) in B6D2F1 (BDF1) mice
condition.description: endpoint: mean survival time; dose: 400.0 mg/kg/injection; schedule: Q01DX001 (ip); vehicle: saline; higher = longer survival
Toxic doses and inconclusive results are not listed.

Record excerpt, results attached:
O=C(CC(=O)c1ccco1)c1ccco1    96 % of control
Cc1ccc(N=C2CCCCC2Nc2ccc(C)cc2)cc1.[Cl][Zn][Cl] (stereo not given)    104 % of control
CC(=O)Nc1cc(-c2ccccc2)c(NC(C)=O)c(-c2ccccc2)c1    94 % of control
O=C(Nc1ccc([N+](=O)[O-])cc1Cl)c1ccc(C(=O)Nc2ccc([N+](=O)[O-])cc2Cl)cc1    91 % of control
O=C(Nc1cc([N+](=O)[O-])ccc1S(=O)(=O)c1ccc([N+](=O)[O-])cc1NC(=O)c1ccccc1)c1ccccc1    94 % of control
CC(C)(CO)N=Cc1cc([N+](=O)[O-])ccc1O    110 % of control
O=C(CSc1ccc([N+](=O)[O-])cc1)c1ccc(Br)cc1    94 % of control
COC(=S)S    105 % of control
Cc1ncccc1CCO    102 % of control
COc1ccc(Cc2ccc3[nH]c(=O)cc(C)c3c2)cc1S(=O)(=O)O    94 % of control

(Q) Quick check: T/C on L1210 leukemia ip in BDF1 mice, survival T/C, item CCOC(=O)c1cnc(NCC(C)(C)C)[nH]c1=O ?
(A) 91 % of control

* * *

System: L1210 leukemia ip in BDF1 mice, survival T/C
assay.info: NCI In Vivo Anticancer Drug Screen. Data for tumor model L1210 Leukemia (intraperitoneal) in B6D2F1 (BDF1) mice
condition.description: endpoint: mean survival time; dose: 25.0 mg/kg/injection; schedule: Q04DX003 (ip); vehicle: saline; higher = longer survival
Toxic doses and inconclusive results are not listed.
observed.property: T/C

CCN(CC)CCOC(=O)N(c1ccccc1)c1ccccc1    92 % of control
CC(C)NC1C2CCC(CC2)C1(O)c1ccc(Cl)c(Cl)c1 (stereo not given)    95 % of control
CC1(C)N=C(N)N=C(N)N1c1cccc(CN)c1    101 % of control
CC(N)Cc1ccc(O)cc1 (stereo not given)    100 % of control

(Q) // T/C lookup, key: NCC(=O)CCS(=O)(=O)c1ccc(Cl)cc1
(A) 91 % of control

(Q) Try the compound CC(=O)OCC1C(C)CCC1C(C)(C)OC(C)=O (stereo not given)
(A) 95 % of control

(Q) Next: CCN(CC)CCn1c2ccncc2c2cnccc21
(A) 96 % of control

(Q) Cool, now CC(C)(C)NCCCN1CC1(C)C (stereo not given)
(A) 117 % of control

(Q) Again, but for O=C(CC(=O)C(F)(F)C(F)(F)C(F)(F)F)C(F)(F)F
(A) 87 % of control

(Q) Next: O=C1C(Br)=C(N2CC2)C(=O)C(Br)=C1N1CC1
(A) 104 % of control

* * *

Test system: L1210 leukemia ip in BDF1 mice, survival T/C
assay.info: NCI In Vivo Anticancer Drug Screen. Data for tumor model L1210 Leukemia (intraperitoneal) in B6D2F1 (BDF1) mice
condition.description: endpoint: mean survival time; dose: 100.0 mg/kg/injection; schedule: Q01DX001 (ip); vehicle: carboxymethylcellulose (CMC); higher = longer survival
Toxic doses and inconclusive results are not listed.
observed.property: T/C

Nc1cc2c(cc1Br)-c1ccccc1/C2=N\O    102 % of control

(Q) Test system L1210 leukemia ip in BDF1 mice, survival T/C; read-out T/C; what value for CN(C)c1ccc(N=C2C(c3ccccc3)=CC(c3ccccc3)=C2c2ccccc2)cc1 ?
(A) 91 % of control

(Q) Same thing, different molecule: COc1cc2c(cc1OC)C(Cc1ccc(OC(=O)O)cc1)=NCC2
(A) 102 % of control

(Q) Moving on to the next molecule: Nc1cc2c(cc1Br)-c1cc(Br)c(N)cc1C2=O
(A) 98 % of control

(Q) Thanks! And C=C(C)C(O)CC(C)C (stereo unspecified) ?
(A) 100 % of control

(Q) Lookup O=C(O)c1cccc(Sc2ccccc2)c1
(A) 100 % of control

* * *

Entries and their T/C values follow.
Tested on: L1210 leukemia ip in BDF1 mice, survival T/C
assay.info: NCI In Vivo Anticancer Drug Screen. Data for tumor model L1210 Leukemia (intraperitoneal) in B6D2F1 (BDF1) mice
condition.description: endpoint: mean survival time; dose: 50.0 mg/kg/injection; schedule: Q01DX009 (ip); vehicle: Klucel (hydroxypropylcellulose) (HPC); higher = longer survival
Inconclusive results and toxic doses are left out.

O=C1C=CC(=O)C(c2ccccc2)=C1    100 % of control
CC(C)C1C(C)N1C(C)C (centres undefined)    100 % of control
NCCc1ccc(O)c(O)c1    114 % of control
CC(=O)OC1CCC2(C)C3=C(CCC2C1(C)C)C1(C)CCC(C(C)CCC=C(C)C)C1(C)CC3 (centres undefined)    102 % of control
O=C(NC1CCCCC1)Oc1cc(CCl)cc(CCl)c1    112 % of control
Cn1c2c(c(=O)n(C)c1=O)CC(=O)N2    100 % of control

(Q) For the compound CCN(CC)Cc1ncccc1O , what T/C is on record?
(A) 106 % of control

* * *

System: L1210 leukemia ip in BDF1 mice, survival T/C
assay.info: NCI In Vivo Anticancer Drug Screen. Data for tumor model L1210 Leukemia (intraperitoneal) in B6D2F1 (BDF1) mice
condition.description: endpoint: mean survival time; dose: 200.0 mg/kg/injection; schedule: Q01DX001 (ip); vehicle: saline; higher = longer survival
Toxic doses and inconclusive results are not listed.
T/C reference

C#CC(C)(O)CC (stereo unspecified)    100 % of control

(Q) State the recorded T/C for this entry: CC1CCCC1C(=Nc1ccc(Cl)c(Cl)c1)N1CCCCC1 (stereo unspecified)
(A) 100 % of control

(Q) Would you mind doing O=S(CS(=O)c1ccccc1)c1ccccc1 (stereo unspecified) as well?
(A) 94 % of control

(Q) // repeat for COc1ccc(Cc2ccc3[nH]c(=O)cc(C)c3c2)cc1S(=O)(=O)O and report
(A) 105 % of control

(Q) Another compound to check: NC1(C(=O)O)CSSC1
(A) 101 % of control

(Q) Could you do the same for O=C(Nc1cc([N+](=O)[O-])ccc1S(=O)(=O)c1ccc([N+](=O)[O-])cc1NC(=O)c1ccccc1)c1ccccc1 , please?
(A) 94 % of control

* * *

System: L1210 leukemia ip in BDF1 mice, survival T/C
assay.info: NCI In Vivo Anticancer Drug Screen. Data for tumor model L1210 Leukemia (intraperitoneal) in B6D2F1 (BDF1) mice
condition.description: endpoint: mean survival time; dose: 400.0 mg/kg/injection; schedule: Q04DX003 (ip); vehicle: Klucel (hydroxypropylcellulose) (HPC); higher = longer survival
Inconclusive results and toxic doses are left out.
observed.property: T/C

O=C(NC(=O)C(Cl)Cl)OC1c2ccccc2-c2ccccc21    95 % of control
O=c1c2ccccc2[nH]c(=S)n1C1CCCCC1    100 % of control
O=c1oc2ccccc2c(O)c1C(c1ccc(C(c2c(O)c3ccccc3oc2=O)c2c(O)c3ccccc3oc2=O)cc1)c1c(O)c2ccccc2oc1=O    93 % of control

(Q) I am curious: what T/C value has been reported for CCCCOC(=O)CCCC(=O)OCCCC ?
(A) 101 % of control

(Q) How about Clc1cccc(/C=C2\c3cc(Cl)ccc3-c3c(Cl)cc(Cl)cc32)c1 ?
(A) 101 % of control

(Q) Continue with Cc1cc(Br)ccc1NNS(=O)(=O)c1cccc(N)c1
(A) 107 % of control

(Q) Next: CS(=O)(=O)OCC1CCCCO1 (centres undefined)
(A) 111 % of control

(Q) And for CN(C)c1ccc(C(=O)c2ccccc2)cc1 ?
(A) 100 % of control

(Q) Now the molecule CC(C)OP(=O)(NC12CC3CC(CC(C3)C1)C2)OC(C)C
(A) 100 % of control

* * *

Test system: L1210 leukemia ip in BDF1 mice, survival T/C
assay.info: NCI In Vivo Anticancer Drug Screen. Data for tumor model L1210 Leukemia (intraperitoneal) in B6D2F1 (BDF1) mice
condition.description: endpoint: mean survival time; dose: 200.0 mg/kg/injection; schedule: Q04DX002 (ip); vehicle: saline with Tween-80; higher = longer survival
Toxic doses and inconclusive results are not listed.
observed.property: T/C

Cc1c2ccccc2c2ccccc2[n+]1[O-]    101 % of control
CC(=O)c1cc(C)c(O)cc1C    92 % of control
O=C(C1=CN(CC(O)c2ccccc2)CCC1)c1cc2ccccc2n1S(=O)(=O)c1ccccc1 (configuration not stated)    94 % of control
CCCCCCCN(CCCCCCC)C(=O)N(CC)CC    93 % of control
CCCN(CCC)S(=O)(=O)CC    92 % of control
c1ccc(P(c2ccccc2)N2CCN(P(c3ccccc3)c3ccccc3)CC2)cc1    93 % of control

(Q) Would you kindly share the measured T/C for COc1ccccc1NC(=O)Nc1ccc(S(N)(=O)=O)cc1 ?
(A) 104 % of control

(Q) Same again, this time with O/N=C/c1ccco1
(A) 103 % of control

(Q) Next record, please: OC1CCCCC1Sc1ccccc1 (configuration not stated)
(A) 111 % of control

(Q) CC12C(=O)C(C)(C(c3ccccc3)=C1c1ccccc1)C1C=CN(S(C)(=O)=O)C=CC12 (configuration not stated) ?
(A) 88 % of control

(Q) Request: c1ccc2c(c1)Cc1cc(NC3=NCCO3)ccc1-2
(A) 104 % of control

(Q) Param item: Cc1c([N+](=O)[O-])cc(C(C)(C)C)c(OC(=O)c2ccccc2)c1[N+](=O)[O-]
(A) 116 % of control
